Assay: Plasma protein binding, human
Format: in vitro ADME
Conditions: read-out: PPB human, plasma protein binding rate (converted)
Procedure: Table S2. Result of microsomal stability, plasma protein binding rate, and CYP inhibition of 6l and 6y Compound MSa PPBrat human rat human 1A2 2C9 2C19 2D6 3A4 a % of remaining after 30 min. b plasma protein binding rate (%) at 5 μM concentrations. c % of CYP inhibition in human liver microsomes at 10 μM concentrations. […]
measurement_kind: fraction unbound at 5 μM
Response field accepts a number only; no unit should be typed.

smiles_code | fraction unbound at 5 μM
O=c1[nH]c(NCc2ccc(F)c(F)c2)nc2cc(Cl)ccc12 | 0.002

Next molecule, fraction unbound at 5 μM to be filled in.
# fraction unbound at 5 μM lookup, item O=c1[nH]c(Nc2cc(Cl)cc(Cl)c2)nc2cc(Cl)ccc12
0.002

The origin of these recorded values is paper PMC12561453.
